# target_or_system: Pyruvate kinase (Staphylococcus aureus (strain MRSA252)) (UniProt Q6GG09)
# Sequence (Q6GG09 whole entry): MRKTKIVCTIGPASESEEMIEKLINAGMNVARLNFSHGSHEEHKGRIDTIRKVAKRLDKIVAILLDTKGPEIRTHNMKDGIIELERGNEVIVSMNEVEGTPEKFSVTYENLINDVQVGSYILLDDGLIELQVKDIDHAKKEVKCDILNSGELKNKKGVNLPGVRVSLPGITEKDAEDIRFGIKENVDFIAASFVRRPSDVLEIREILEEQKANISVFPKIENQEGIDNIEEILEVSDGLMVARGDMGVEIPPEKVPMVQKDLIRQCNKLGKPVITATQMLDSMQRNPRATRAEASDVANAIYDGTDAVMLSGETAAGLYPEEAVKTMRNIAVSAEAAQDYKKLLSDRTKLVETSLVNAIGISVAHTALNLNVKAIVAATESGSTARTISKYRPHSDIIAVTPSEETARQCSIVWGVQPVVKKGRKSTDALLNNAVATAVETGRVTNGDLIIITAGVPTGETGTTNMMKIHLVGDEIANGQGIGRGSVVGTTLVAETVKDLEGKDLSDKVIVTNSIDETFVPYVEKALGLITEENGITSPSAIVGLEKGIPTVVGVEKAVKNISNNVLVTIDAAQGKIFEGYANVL
# assay_protocol: Inhibition of methicillin-resistant Staphylococcus aureus 252 pyruvate kinase at 10 uM by LDH assay
# settings: Staphylococcus aureus subsp. aureus MRSA252
Answer each item with its documented inhibition.
One number for each entry, in %.

C/C(=N\NC(=O)c1cc(Br)ccc1O)c1cc2cc(F)ccc2[nH]1
97
CC(=NNC(=O)c1cc(Br)ccc1O)c1cc2cc(Cl)ccc2n1C (mixture of isomers)
92.3
CCC(=NNC(=O)c1cc(Br)ccc1O)c1cc2ccccc2n1C (mixture of isomers)
99.1
CC(C)(C)/C(=N/NC(=O)c1cc(Br)ccc1O)c1cc2ccccc2[nH]1
0
CC/C(=N\NC(=O)c1cc(Br)ccc1O)c1cc2ccccc2[nH]1
99.2

// input: 4 molecules below; output: inhibition for each
1. C/C(=N\NC(=O)c1cc(Br)ccc1O)c1cc2cc(Cl)ccc2[nH]1
2. CC(=NNC(=O)c1cc(Br)ccc1O)c1cc2cc(F)ccc2n1C (mixture of isomers)
3. C#CCOc1ccccc1C(=O)N/N=C(\C)c1cc2cc(Br)ccc2[nH]1
4. COc1ccc(Br)cc1C(=O)N/N=C(\C)c1cc2ccccc2[nH]1

stdout:
1. 80.1
2. 96.1
3. 93.2
4. 83.4
